Data provenance: paper PMC10193543

# system: mushroom TYR (Agaricus bisporus, UniProt C7FF04)
# Sequence (C7FF04 1-392 limits assumed): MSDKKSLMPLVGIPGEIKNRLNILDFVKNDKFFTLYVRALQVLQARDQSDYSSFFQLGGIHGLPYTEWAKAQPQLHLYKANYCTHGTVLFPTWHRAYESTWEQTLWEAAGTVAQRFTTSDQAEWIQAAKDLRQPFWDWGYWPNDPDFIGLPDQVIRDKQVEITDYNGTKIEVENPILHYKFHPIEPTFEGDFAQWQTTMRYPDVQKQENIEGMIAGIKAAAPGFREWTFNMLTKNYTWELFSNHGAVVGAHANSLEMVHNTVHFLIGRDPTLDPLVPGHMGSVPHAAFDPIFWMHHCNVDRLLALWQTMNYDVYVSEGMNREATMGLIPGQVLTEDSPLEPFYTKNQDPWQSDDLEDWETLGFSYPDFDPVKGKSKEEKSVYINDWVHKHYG
assay_endpoint: Ki (nM)

INSERT INTO assay_data (compound, assay_endpoint, quantitative_readout) VALUES
  ('COc1ccc(C2CC(c3ccc(C)cc3)=Nc3ccccc3S2)cc1OC (stereo not shown)', 'Ki', 1010);
